- protocol: Screening pharmacokinetic study, plasma and brain (LC-MS/MS)
- Format: in vivo, mice (C57BL6/J)
- assay_context: male, C57BL6/J, mouse; mice, 20 mg/kg oral route, plasma
We begin with a simple list: items and their reported Tmax.
measurement_label: Tmax (min)

>  <query_smiles>
CC(C)Sc1cc(/C=N/O)nc2c1ccc1cccnc12

>  <measurement_label>
Tmax

>  <experimental_result>
18

$$$$
>  <query_smiles>
COCCOc1cc(/C=N/O)nc2c1ccc1cccnc12

>  <measurement_label>
Tmax

>  <experimental_result>
15

$$$$
>  <query_smiles>
CSc1cc(/C=N/O)nc2c1ccc1cccnc12

>  <measurement_label>
Tmax

>  <experimental_result>
15

$$$$
>  <query_smiles>
CCN(CC)CCOc1cc(/C=N/O)nc2c1ccc1cccnc12

>  <measurement_label>
Tmax

>  <experimental_result>
60

$$$$

###

- protocol: Screening pharmacokinetic study, plasma and brain (LC-MS/MS)
- Type: in vivo, mice (C57BL6/J)
- assay_context: male, C57BL6/J, mouse, plasma; mice, 200 mg/kg oral route (high dose)
measurement_label: bioavailability (%)

>  <compound>
CC(C)Sc1cc(/C=N/O)nc2c1ccc1cccnc12 [Compound 7]

>  <value_units>
%

>  <experimental_result>
3.19

$$$$
>  <compound>
CCN(CC)CCOc1cc(/C=N/O)nc2c1ccc1cccnc12 [Compound 10]

>  <value_units>
%

>  <experimental_result>
77.6

$$$$
>  <compound>
CSc1cc(/C=N/O)nc2c1ccc1cccnc12 [Compound 4]

>  <value_units>
%

>  <experimental_result>
19.1

$$$$

###

- Test system: SH-SY5Y human neuroblastoma cells
- protocol: Toxicity: LDH activity release in SH-SY5Y cells
- Assay type: cell-based
- assay_context: 24 h, increasing concentrations from 1 μM up to 1 mM
We begin with a simple list: items and their reported Maximum concentration tested for toxicity.
measurement_label: Maximum concentration tested for toxicity (µM)

>  <compound>
ON=Cc1cc(SCC(F)(F)F)c2ccc3cccnc3c2n1 [Compound 13]

>  <experimental_result>
1000

$$$$
>  <compound>
ON=Cc1cc(Cl)c2ccc3cccnc3c2n1 [Compound 2]

>  <experimental_result>
1000

$$$$
>  <compound>
O=C(O)CSc1cc(C=NO)nc2c1ccc1cccnc12 [Compound 16]

>  <experimental_result>
10

$$$$
>  <compound>
Cc1cnc(Sc2cc(C=NO)nc3c2ccc2cccnc23)s1 [Compound 17]

>  <experimental_result>
1000

$$$$
>  <compound>
COCCOc1cc(/C=N/O)nc2c1ccc1cccnc12 [Compound 8]

>  <experimental_result>
1000

$$$$
>  <compound>
CSc1cc(/C=N/O)nc2c1ccc1cccnc12 [Compound 4]

>  <experimental_result>
1000

$$$$
>  <compound>
O=Cc1cc(Cl)c2ccc3cccnc3c2n1 [Compound 3]

>  <experimental_result>
10

$$$$
>  <compound>
COC(=O)CSc1cc(C=NO)nc2c1ccc1cccnc12 [Compound 14]

>  <experimental_result>
1000

$$$$
>  <compound>
CC(C)Sc1cc(/C=N/O)nc2c1ccc1cccnc12 [Compound 7]

>  <experimental_result>
1000

$$$$
>  <compound>
CN(C)C(=O)CSc1cc(C=NO)nc2c1ccc1cccnc12 [Compound 12]

>  <experimental_result>
1000

$$$$

###

- protocol: Screening pharmacokinetic study, plasma and brain (LC-MS/MS)
- Type: in vivo, mice (C57BL6/J)
- assay_context: male, C57BL6/J, mouse; mice, 200 mg/kg oral route, plasma
measurement_label: Tmax (min)

>  <query_smiles>
CC(C)Sc1cc(/C=N/O)nc2c1ccc1cccnc12

>  <experimental_result>
30

$$$$
>  <query_smiles>
CCN(CC)CCOc1cc(/C=N/O)nc2c1ccc1cccnc12

>  <experimental_result>
30

$$$$
>  <query_smiles>
CSc1cc(/C=N/O)nc2c1ccc1cccnc12

>  <experimental_result>
30

$$$$

###

- protocol: Screening pharmacokinetic study, plasma and brain (LC-MS/MS)
- Format: in vivo, mice (C57BL6/J)
- assay_context: male, C57BL6/J, mouse; mice, 20 mg/kg oral route, brain

>  <compound>
CSc1cc(/C=N/O)nc2c1ccc1cccnc12 [Compound 4]

>  <half-life [min]>
39.6

$$$$
>  <compound>
COCCOc1cc(/C=N/O)nc2c1ccc1cccnc12 [Compound 8]

>  <half-life [min]>
108

$$$$
>  <compound>
CC(C)Sc1cc(/C=N/O)nc2c1ccc1cccnc12 [Compound 7]

>  <half-life [min]>
43.8

$$$$

###

- System: SH-SY5Y human neuroblastoma cells
- protocol: Toxicity: LDH activity release in SH-SY5Y cells
- Assay type: cell-based
- assay_context: at 10 μM, 24 h
- Protocol: The potential effects on cell viability of the assayed compounds are assayed in SH-SY5Y human neuroblastoma cells, by quantification of Lactate dehydrogenase (LDH) activity release. SH-SY5Y human neuroblastoma cells are seeded into 96-well culture plates at 10^4 cells/well. […] For LDH release quantification, the Roche cytotoxicity detection kit (Cat. No. 11 644 793 001) is used. The LDH activity is measured by its absorbance at 492 nm with reference wavelength 620 nm. […]
measurement_label: Toxic at maximum concentration tested (Yes/No)

>  <query_smiles>
O=Cc1cc(Cl)c2ccc3cccnc3c2n1

>  <experimental_result>
Yes

$$$$
>  <query_smiles>
Cc1nnc(Sc2cc(C=NO)nc3c2ccc2cccnc23)s1

>  <experimental_result>
Yes

$$$$
>  <query_smiles>
ON=Cc1cc(Sc2nncs2)c2ccc3cccnc3c2n1

>  <experimental_result>
Yes

$$$$
>  <query_smiles>
O=C(O)CSc1cc(C=NO)nc2c1ccc1cccnc12

>  <experimental_result>
Yes

$$$$
>  <query_smiles>
CSc1cc(C=O)nc2c1ccc1cccnc12

>  <experimental_result>
Yes

$$$$
>  <query_smiles>
NCCOc1cc(/C=N/O)nc2c1ccc1cccnc12

>  <experimental_result>
No

$$$$

###

We begin with a simple list: items and their reported Kp.
- protocol: Screening pharmacokinetic study, plasma and brain (LC-MS/MS)
- Format: in vivo, mice (C57BL6/J)
- assay_context: male, C57BL6/J, mouse, brain and plasma, po, 20 mg/kg, brain Cmax relative to plasma Cmax, mice, 20 mg/kg oral route; read-out: % Cmax

>  <molecule>
COCCOc1cc(/C=N/O)nc2c1ccc1cccnc12 [Compound 8]

>  <Kp>
0.0621

$$$$
>  <molecule>
CCN(CC)CCOc1cc(/C=N/O)nc2c1ccc1cccnc12 [Compound 10]

>  <Kp>
0.0876

$$$$
>  <molecule>
CC(C)Sc1cc(/C=N/O)nc2c1ccc1cccnc12 [Compound 7]

>  <Kp>
0.417

$$$$
>  <molecule>
CSc1cc(/C=N/O)nc2c1ccc1cccnc12 [Compound 4]

>  <Kp>
0.742

$$$$

###

- protocol: Screening pharmacokinetic study, plasma and brain (LC-MS/MS)
- Type: in vivo, mice (C57BL6/J)
- assay_context: male, C57BL6/J, mouse; mice, intravenous route, group 1-2 mg/kg (Compound 4, 8: 1.00; 7: 1.20; 10: 2.00 mg/Kg), brain
We begin with a simple list: items and their reported Tmax.
measurement_label: Tmax (min)

>  <compound>
CSc1cc(/C=N/O)nc2c1ccc1cccnc12 [Compound 4]

>  <measurement_label>
Tmax

>  <experimental_result>
15

$$$$
>  <compound>
CC(C)Sc1cc(/C=N/O)nc2c1ccc1cccnc12 [Compound 7]

>  <measurement_label>
Tmax

>  <experimental_result>
4.8

$$$$
>  <compound>
COCCOc1cc(/C=N/O)nc2c1ccc1cccnc12 [Compound 8]

>  <measurement_label>
Tmax

>  <experimental_result>
15

$$$$
>  <compound>
CCN(CC)CCOc1cc(/C=N/O)nc2c1ccc1cccnc12 [Compound 10]

>  <measurement_label>
Tmax

>  <experimental_result>
4.8

$$$$

###

We begin with a simple list: items and their reported AUC.
- protocol: Screening pharmacokinetic study, plasma and brain (LC-MS/MS)
- Type: in vivo, mice (C57BL6/J)
- assay_context: male, C57BL6/J, mouse; mice, 200 mg/kg oral route, plasma

>  <compound>
CC(C)Sc1cc(/C=N/O)nc2c1ccc1cccnc12 [Compound 7]

>  <AUC>
1700 ng·h/mL

$$$$
>  <compound>
CCN(CC)CCOc1cc(/C=N/O)nc2c1ccc1cccnc12 [Compound 10]

>  <AUC>
11500 ng·h/mL

$$$$
>  <compound>
CSc1cc(/C=N/O)nc2c1ccc1cccnc12 [Compound 4]

>  <AUC>
1380 ng·h/mL

$$$$

###

- protocol: Screening pharmacokinetic study, plasma and brain (LC-MS/MS)
- Assay type: in vivo, mice (C57BL6/J)
- assay_context: mice, 20 mg/kg oral route, brain
We begin with a simple list: items and their reported Cmax Brain.

>  <compound>
CSc1cc(/C=N/O)nc2c1ccc1cccnc12 [Compound 4]

>  <value_units>
ng/g

>  <Cmax Brain>
15.40

$$$$
>  <compound>
COCCOc1cc(/C=N/O)nc2c1ccc1cccnc12 [Compound 8]

>  <value_units>
ng/g

>  <Cmax Brain>
24.60

$$$$
>  <compound>
CC(C)Sc1cc(/C=N/O)nc2c1ccc1cccnc12 [Compound 7]

>  <value_units>
ng/g

>  <Cmax Brain>
19.62

$$$$
>  <compound>
CCN(CC)CCOc1cc(/C=N/O)nc2c1ccc1cccnc12 [Compound 10]

>  <value_units>
ng/g

>  <Cmax Brain>
13.07

$$$$
